experiment: protein stability index of a GFP-peptide fusion (yeast GPS) (PSI 1-4); higher = more stable; sorted into four equal gates, so the index is relative within each strain; details: doa10∆
# protein stability index annotations

Given the sequence SQKTKTIQSDLNLSLHK [SMC2] , what is its reported protein stability index?
2.35

# input sequence: TGAPPYYYNTKIYKLEN [YMR129W/POM152] ; wanted: its protein stability index
2.8

Reported protein stability index, sequence IFERMIEKCLKASELKL [RPN2] : ____
2.17

----------
assay: protein stability index of a GFP-peptide fusion (yeast GPS) (PSI 1-4); higher = more stable; sorted into four equal gates, so the index is relative within each strain; conditions: doa10∆
Record satisfied whenever protein stability index is at 3 or higher; record not satisfied when lower.

Answered cases to consult:
Please tell me: is the sequence QNSSKIVNVLSKCLNLI [SWI3] at or over 3 in terms of protein stability index?
not satisfied

Answer whether protein stability index of KKQVHVYRFVTENAIEE [ISW2] is greater than or equal to 3.
not satisfied

Exam item: decide whether the reported protein stability index for GTGKPEAIHDMFTYSQE [RPN2] is at least 3.
not satisfied

Continuing:
Assess whether reported protein stability index for NNSNTVASSTNFTSPTA [SWI1] sits at 3 or higher.
not satisfied

----------
assay: protein stability index of a GFP-peptide fusion (yeast GPS) (PSI 1-4); higher = more stable; sorted into four equal gates, so the index is relative within each strain; conditions: ubr1∆
Decision: protein stability index >= 3 yields condition met, all other cases yield condition not met.

Entry ADNTKDKEKEENNDDAL [MED4] : is its protein stability index no less than 3?
condition met

Check the entry EHFSDEETYEEKPQFKD [RPO26] : does protein stability index equal or exceed 3?
condition met

Threshold query (protein stability index >= 3) on KSPSLTAQKYPIYTGDG [YMR153W/NUP53]
condition not met

Determine whether this sequence has protein stability index no lower than 3: VLKSSVYEYVIASTLGP [RPC82]
condition not met

---
Please indicate if the recorded protein stability index for KASVLEISPQDSIASVL [GAL11] meets or exceeds 3.
condition met

Hi team, for IIFQQLLFWTDPRNLVN [YCG1] , is the recorded protein stability index at or above 3?
condition not met

hey, is protein stability index for this one >= 3? HKMSMMAHRVKVIPYST [RPO21]
condition not met

----------
Measured protein stability index of individual entries
experiment: protein stability index of a GFP-peptide fusion (yeast GPS) (PSI 1-4); higher = more stable; sorted into four equal gates, so the index is relative within each strain; conditions: pdr5∆
Could you keep your reply to the number by itself?

Example sequences with recorded protein stability index:
Bench note: what protein stability index did KTYNCLHEKYLTEGGSI [SMC1] show?
3.05

Please report the recorded protein stability index for CLDQMTEQFCATLNYID [SRB7] .
2.87

Recorded protein stability index for IIQLILWSIHPSRQFDH [SRB8] , please?
1.47

# query: protein stability index of entry RPNRRGPRNTEEKGWVP [RPS2]
3.49

Any idea what its protein stability index is? The sequence is HIQVNQAPKQRRRTYRA [RPL17A]
2.34

Consider the sequence shown here: SLQDRSSLVRRNSVKLL [YCS4] What is its recorded protein stability index?
2.12

// returns reported protein stability index for input NSSKPAFSFGAKSNEDK [YJL041W/NSP1]
3.13

Returns the measured protein stability index for the input sequence. Input: IQPKITELKKKLDDLEN [SMC1]
2.79

More entries:
I am curious: what protein stability index value has been reported for ERYSDKYLKKRKIGISI [RPC31] ?
2.39

Would you kindly share the measured protein stability index for KKLSKKYNAFIASEVLI [RPL1A] ?
1.9

Item under review: LEDYVPHQSPDATRVFV [RPB2] . Reported protein stability index?
2.87

What value of protein stability index has been recorded for this entry: DICQIDTNAPVAATITS [SRB8]
2.45

Sample DENPDLLGYTGIPTDKG [PRE8] — what was its protein stability index?
2.48

Find the recorded protein stability index belonging to WKRQISYFLKLLGNCYS [SRB8] and report it.
1.82

Please give the measured protein stability index for this sequence: INGEDPANNHQLGLQTV [SMX2]
2.94

protein stability index for LKYSKRRSLKKQGRIKN [CSN12] ?
3.27

Give the measured protein stability index of LQRQQRKSKLNLDNLQK [POP4] .
3.22

Any idea what protein stability index was measured for MNNETSGKETASAPLCS [DLS1] ?
3.21

Which protein stability index value is on record for EMTLPTSPLYMDPGAPL [SSN2] ?
2.8

Quick one: protein stability index of NNLFRIIAELSFLKVDP [YJL039C/NUP192] ?
3.02

// returns reported protein stability index for input KENEESLTPTQSDSAKV [PRP28]
3.35

Tell me the measured protein stability index of EKLYIFYKLNMPDEFNT [SRP72] , please.
1.96

Any idea what protein stability index was measured for SSSNGGGSAKPSLKFKP [RPC53] ?
3

Fill blank: measured protein stability index of the sequence EIKVGKQRFQGCNNLIK [ARP9] is ____.
3.06

----------
experiment: protein stability index of a GFP-peptide fusion (yeast GPS) (PSI 1-4); higher = more stable; sorted into four equal gates, so the index is relative within each strain; settings: doa10∆
Metric: protein stability index
Quick one: just the number, no unit, thanks!

The cases that follow already have their protein stability index on record.
Report protein stability index for PRTLIGHRATVTDIAII [RPN14] please.
3.24

# protein stability index lookup, item YSDIGGLESQIQEIKES [RPT2]
1.8

***
Quick one: protein stability index of TPDASKPSFSFGVPNSS [YLR335W/NUP2] ?
2.92

Any idea what protein stability index was measured for HDEKLSDELHNQSTIYE [LIN1] ?
2.91

Give the measured protein stability index of FVPNDGCLNFVDENDEV [RPS23A] .
2.94

Given the entry LAVKVHGGSRYATKDGV [QCR2] , report its measured protein stability index.
1.62

For ENLADLDYQIGNSESKV [LIN1] , what is its reported protein stability index?
3.23

# query: protein stability index of entry GSENKRGSLDSEHVFDY [NUT1]
3.37

What value of measured protein stability index is listed for EIEDGQDGGVTPYSNES [RPO21] ?
3.49

Given the entry KPMTAYARADTHFLLNI [RRP6] , report its measured protein stability index.
2.26

Endpoint output: protein stability index of AASAAGYDRHITIFSPE [SCL1] . Value?
2.86

Which protein stability index value belongs to KAELPQWYTLQSQLNVT [MED8] ?
2.77

What measured protein stability index goes with FGYDIPLLDIVLKADRS [YML103C/NUP188] ?
2.14

Any idea what protein stability index was measured for VLDSMTKEELESDGRMF [SRP54] ?
3.02

----------
test: protein stability index of a GFP-peptide fusion (yeast GPS) (PSI 1-4); higher = more stable; sorted into four equal gates, so the index is relative within each strain; details: san1∆
# protein stability index listing for each entry below
Please reply with the number alone, leaving off any unit.

// solved cases for protein stability index follow
Give the measured protein stability index of ENANADLENKFNRLKKQ [YIL149C/MLP2] .
3.09

Which protein stability index is listed for TLLESNLCKIIEPFECV [RPN6] ?
2.28

Look up protein stability index for this sequence: DNVQANDPAREKFSSFI [SNF12]
3.1

# input for lookup
What protein stability index value was documented for this sequence, EIDDTEAEVTAEVNGGD [BRR2] ?
3.01

----------
This listing pairs sequences with measured protein stability index.
test: protein stability index of a GFP-peptide fusion (yeast GPS) (PSI 1-4); higher = more stable; sorted into four equal gates, so the index is relative within each strain; conditions: doa10∆

Answered examples (2):
Item EEAAEESDDDMGFGLFD [RPP1B] has what recorded protein stability index?
3.14

Which protein stability index is listed for HSFAVLLHERKLLNDLA [NUT1] ?
2.68

Field: next sequence
Suppose we examine the sequence SIDPPGCVDIDDALHAK [DIS3] ; what protein stability index value has been reported?
3.12

----------
Listed here are sequences together with their documented protein stability index.
test: protein stability index of a GFP-peptide fusion (yeast GPS) (PSI 1-4); higher = more stable; sorted into four equal gates, so the index is relative within each strain; settings: pdr5∆
Would you mind answering with just the numeric figure?

Worked examples follow.
Suppose we examine the sequence KQVQISHHLKADTIDHD [YGL172W/NUP49] ; what protein stability index value has been reported?
3.09

What protein stability index value was documented for this sequence, VKGDLLQEAIDFAQKEI [PRE10] ?
2.84

# input sequence: LLRLASKSTSMKLSMPP [POP1] ; wanted: its protein stability index
2.76

What value of protein stability index has been reported for the following sequence? DTFVHVTDLSGKETIAR [RPS14B]
2.98

For the sequence shown here, RNVEQKLNELDELILEA [NNF1] , give the reported protein stability index.
3.29

New cases:
Given the sequence TKNGTPNPNNMKTVQSP [GAL11] , what is its reported protein stability index?
2.92

I would be grateful if you could share the reported protein stability index for SAAAAGNRNSSSVFLPS [BRR2] .
3.17

Which value of protein stability index has been reported for RRNLRYGDRMKLAKNLQ [RPO31] in the records?
3.38

# protein stability index lookup, item KLKNNASRSQLEKGEIE [YJL039C/NUP192]
2.98

Which protein stability index is listed for PLDRLENVLAIGIAGAH [SKI6] ?
1.78

What does the data say about its protein stability index? Entry: VWGSETVASSKVGYTLP [RPL4A]
3.15

# input sequence: ITHYAVRGGNIEIMGIL [RRI1] ; wanted: its protein stability index
2.54

// returns reported protein stability index for input FDDNDSGNNYNDINISS [MED2]
3.19

I am curious: what protein stability index value has been reported for QLHFSLLDEEAEQSFDQ [RPO21] ?
2.77

Query: protein stability index; subject: PDVLLSRVINVVRAASS [RRP6]
1.57

# input sequence: GSKISSNDLDKFFQKKI [YGL172W/NUP49] ; wanted: its protein stability index
2.02

Look at this sequence and give its reported protein stability index. LRRLEILVPDLYHLVIM [ECM29]
1.54

Quick one: protein stability index of KTIVTGGNGPEDFQQHE [RPO26] ?
3.33

Request the reported protein stability index associated with EAIETCKNFEKTQLGST [GAL11]
3.1

// query protein stability index value for entry DFNQAFEGTDDNEEASV [BRN1]
3.17

I would be grateful if you could share the reported protein stability index for ANTNSVTSMEAAREKKI [YIL149C/MLP2] .
3.05
